Molecular target: A2-adenosine receptors (Rattus norvegicus, UniProt P30543)
Construct: rat striatal membranes; from tissue; host or cells: rat striatal membranes
Sequence (P30543 whole entry): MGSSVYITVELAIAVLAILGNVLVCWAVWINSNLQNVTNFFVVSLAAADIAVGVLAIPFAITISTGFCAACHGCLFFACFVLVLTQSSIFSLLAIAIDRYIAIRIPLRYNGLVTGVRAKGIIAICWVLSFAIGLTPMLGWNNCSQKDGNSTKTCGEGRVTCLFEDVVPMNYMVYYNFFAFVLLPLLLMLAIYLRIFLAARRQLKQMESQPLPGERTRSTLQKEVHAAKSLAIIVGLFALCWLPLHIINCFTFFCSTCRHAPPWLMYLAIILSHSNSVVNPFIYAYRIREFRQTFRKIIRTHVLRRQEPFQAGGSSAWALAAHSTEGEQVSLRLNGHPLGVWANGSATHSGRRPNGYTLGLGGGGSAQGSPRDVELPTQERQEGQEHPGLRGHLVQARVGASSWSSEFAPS
Experiment: Inhibition of binding of [3H]CGS21680 to A2-adenosine receptors in rat striatal membranes
Conditions: read-out: Ki, inhibition of binding of [3H]CGS21680 at A2-receptors
pKi: −log10 of the molar value.
Short version: pKi at least 8 is T, less is F.

Consider the worked cases shown below.
INSERT INTO results (compound, category_label) VALUES
  ('CCNC(=O)[C@H]1O[C@@H](n2cnc3c(N)nc(NCCc4ccc(CCC(=O)NCCNC(=O)Cc5ccc(NC(=O)OCc6ccccc6)cc5)cc4)nc32)[C@H](O)[C@@H]1O [Compound 7]', 'F'),
  ('CCNC(=O)[C@H]1O[C@@H](n2cnc3c(N)nc(NCCc4ccc(CCC(=O)NCCCCNC(=O)c5ccc(CF)cc5)cc4)nc32)[C@H](O)[C@@H]1O [Compound 16]', 'F');

Req: Is it the case that CCNC(=O)[C@H]1O[C@@H](n2cnc3c(N)nc(NCCc4ccc(CCC(=O)NCCNC(=O)CBr)cc4)nc32)[C@H](O)[C@@H]1O [Compound 14] has pKi reaching or exceeding 8?
Resp: F

Req: // inclusive: pKi at least 8? input: CCNC(=O)[C@H]1O[C@@H](n2cnc3c(N)nc(NCCc4ccc(CCC(=O)NCCNC(=O)CCCC[C@@H]5SC[C@@H]6NC(=O)N[C@@H]65)cc4)nc32)[C@H](O)[C@@H]1O [Compound 10]
Resp: F

Req: Item CCNC(=O)[C@H]1O[C@@H](n2cnc3c(N)nc(NCCc4ccc(CCC(=O)OC)cc4)nc32)[C@H](O)[C@@H]1O [Compound 2] with pKi of 8 or above?
Resp: T

Req: Answer whether pKi of CCNC(=O)[C@H]1O[C@@H](n2cnc3c(N)nc(NCCc4ccc(CCC(=O)NCCNC(=O)Cc5ccc(N)cc5)cc4)nc32)[C@H](O)[C@@H]1O [Compound 6] is greater than or equal to 8.
Resp: F

----------
Target: A2 adenosine receptors (Bos taurus, UniProt E1BKU0)
Sequence (E1BKU0 1-401): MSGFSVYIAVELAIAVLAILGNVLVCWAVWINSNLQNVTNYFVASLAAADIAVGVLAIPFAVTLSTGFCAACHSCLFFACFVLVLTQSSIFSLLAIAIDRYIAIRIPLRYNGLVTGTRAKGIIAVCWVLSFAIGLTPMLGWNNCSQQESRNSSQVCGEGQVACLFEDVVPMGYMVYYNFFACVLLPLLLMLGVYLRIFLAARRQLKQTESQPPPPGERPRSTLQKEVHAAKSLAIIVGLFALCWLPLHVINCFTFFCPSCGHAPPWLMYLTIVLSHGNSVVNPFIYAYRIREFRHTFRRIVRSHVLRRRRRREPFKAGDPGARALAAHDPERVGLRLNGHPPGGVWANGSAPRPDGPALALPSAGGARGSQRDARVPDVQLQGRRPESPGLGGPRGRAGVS
Assay: Competitive binding assay in bovine brain using 125I-PAPA-APEC (striatal membranes)
Parameters: Bovine striatal membranes; from tissue; host or cells: bovine (calf) striatal membranes
Settings: read-out: Ki, inhibition of binding of 125I-PAPA-APEC at A2-receptors; bovine striatum; 11, 12 and 14: apparent Ki
quantity_measured: Ki (nM)
Number only, in nM; omit the unit.

Req: Give Ki only, for CCNC(=O)[C@H]1O[C@@H](n2cnc3c(N)nc(NCCc4ccc(CCC(=O)NCCNC(=S)NC5CC(C)(C)N([O])C(C)(C)C5)cc4)nc32)[C@H](O)[C@@H]1O , using A2 adenosine receptors (Bos taurus, UniProt E1BKU0) data.
Resp: 14.8

----------
Overview of recorded Ki for various compounds
Biological target: A1-adenosine receptors (Rattus norvegicus, UniProt P25099)
Construct: rat cerebral cortex membranes; from tissue; host or cells: rat cerebral cortex membranes
Sequence (P25099 whole entry): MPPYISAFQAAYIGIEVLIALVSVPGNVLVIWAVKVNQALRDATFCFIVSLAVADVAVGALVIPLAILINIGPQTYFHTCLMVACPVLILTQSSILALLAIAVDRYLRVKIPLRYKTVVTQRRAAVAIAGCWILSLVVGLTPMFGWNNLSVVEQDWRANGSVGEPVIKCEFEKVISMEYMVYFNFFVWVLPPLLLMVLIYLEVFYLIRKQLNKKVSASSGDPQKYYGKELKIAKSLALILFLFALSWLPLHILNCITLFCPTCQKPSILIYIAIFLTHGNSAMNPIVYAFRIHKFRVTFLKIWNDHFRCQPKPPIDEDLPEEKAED
Assay: Competitive binding assay at A1-adenosine receptors, rat cerebral cortex membranes ([3H]PIA or [3H]CHA)
Conditions: rat; [3H]PIA; read-out: Ki, inhibition of binding of [3H]PIA at A1-receptors
Write the answer as a number in nM, unit excluded.

// below: answered compounds
INSERT INTO results (mol, experimental_value) VALUES
  ('CCNC(=O)[C@H]1O[C@@H](n2cnc3c(N)nc(NCCc4ccc(CCC(=O)NCCNC(=O)CBr)cc4)nc32)[C@H](O)[C@@H]1O', 1980),
  ('CCNC(=O)[C@H]1O[C@@H](n2cnc3c(N)nc(NCCc4ccc(CCC(=O)NCCCCNC(=O)c5ccc(CF)cc5)cc4)nc32)[C@H](O)[C@@H]1O', 1450);

Next:
Req: Give Ki for CCNC(=O)[C@H]1O[C@@H](n2cnc3c(N)nc(NCCc4ccc(CCC(=O)NCCNC(=O)Cc5ccc(NC(=O)OCc6ccccc6)cc5)cc4)nc32)[C@H](O)[C@@H]1O
Resp: 278
